- test_name: Tmax in healthy human at 1500 […], po administered as single dose measured after 72 hrs by HPLC method
- Assay type: ADME, organism-based
- Parameters: route oral
- cond: in vivo

>  <smiles_record>
C[C@@H]([C@H](N)C(=O)N[C@H](C(=O)O)[C@H]1O[C@@H](n2ccc(=O)[nH]c2=O)[C@H](O)[C@@H]1O)[C@H](O)c1ccc(O)cn1

>  <Tmax>
2 h

$$$$
